target: MMP-12 (Homo sapiens, UniProt P39900); construct: In regard to MMP-12, catalytic domain (^100Phe˜^263Gly) was amplified with RT-PCR; His-tag; enterokinase digestion-site; test: Assay for inhibitory activities on MMPs (fluorogenic peptide substrate), MMP-12
Sequence (P39900 100-263): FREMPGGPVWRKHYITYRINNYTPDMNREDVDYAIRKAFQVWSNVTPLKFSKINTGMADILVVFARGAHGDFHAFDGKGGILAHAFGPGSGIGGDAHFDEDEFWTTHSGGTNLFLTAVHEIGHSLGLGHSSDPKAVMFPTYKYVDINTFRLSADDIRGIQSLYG
In this section we review reported IC50 values for a set of compounds.
The reply should be a number in nM, with the unit left off.

Look over these answered cases.
• COc1ccc(C(=O)Nc2ccc(-c3ccc(S(=O)(=O)N[C@H](Cc4ccccc4)C(=O)O)cc3)cc2)cc1OC = 839
• COc1ccc(C(=O)Nc2ccc(-c3ccc(S(=O)(=O)N[C@H](Cc4ccccc4)C(=O)O)cc3)cc2)cc1 = 1100
• COc1ccc2cc(C#Cc3ccc(-c4ccc(S(=O)(=O)N[C@H](CC(C)C)C(=O)O)cc4)cc3)ccc2c1 = 9680

Lab note: next compound to report on.
Record for O=C(O)[C@H](Cc1ccccc1)NS(=O)(=O)c1ccc(-c2ccc(C#Cc3ccc4ccccc4c3)cc2)cc1 under target or system MMP-12 (Homo sapiens, UniProt P39900): IC50 reported as 888

----------
target: MMP-8 (Homo sapiens, UniProt P22894); construct: In regard to MMP-8, catalytic domain (^99Phe˜^262Gly) was amplified with PCR; His-tag; enterokinase digestion-site; test: Assay for inhibitory activities on MMPs (fluorogenic peptide substrate), MMP-8
Sequence (P22894 99-262): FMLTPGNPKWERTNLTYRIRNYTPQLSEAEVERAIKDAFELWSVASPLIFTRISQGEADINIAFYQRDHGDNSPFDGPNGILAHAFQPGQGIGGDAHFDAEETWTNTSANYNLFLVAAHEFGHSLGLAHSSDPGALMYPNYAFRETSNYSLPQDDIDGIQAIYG
pIC50: −log10 of the molar value.
observationType: pIC50

Look over these answered cases.
* COc1ccc(C[C@H](NS(=O)(=O)c2ccc(-c3ccc(C#Cc4ccc5cc(OC)ccc5c4)cc3)cc2)C(=O)O)cc1 | < 5.00
* COc1ccc(C(=O)Nc2ccc(-c3ccc(S(=O)(=O)N[C@H](Cc4ccccc4)C(=O)O)cc3)cc2)cc1 | < 5.00
* O=C(O)[C@@H](Cc1ccccc1)NS(=O)(=O)c1ccc(-c2ccc(C#Cc3ccc4ccccc4c3)cc2)cc1 | 6.89
* COc1ccc2cc(C#Cc3ccc(-c4ccc(S(=O)(=O)N[C@H](CO)C(=O)O)cc4)cc3)ccc2c1 | < 5.00

pIC50 recorded for this molecule, CC(C)C[C@@H](NS(=O)(=O)c1ccc(-c2ccc(NC(=O)c3ccc4ccccc4c3)cc2)cc1)C(=O)O , is < 5.00

----------
In this section we review reported IC50 values for a set of compounds.
molecular target: MMP-2 (Homo sapiens, UniProt P08253)
Sequence (P08253 110-660, species assumed): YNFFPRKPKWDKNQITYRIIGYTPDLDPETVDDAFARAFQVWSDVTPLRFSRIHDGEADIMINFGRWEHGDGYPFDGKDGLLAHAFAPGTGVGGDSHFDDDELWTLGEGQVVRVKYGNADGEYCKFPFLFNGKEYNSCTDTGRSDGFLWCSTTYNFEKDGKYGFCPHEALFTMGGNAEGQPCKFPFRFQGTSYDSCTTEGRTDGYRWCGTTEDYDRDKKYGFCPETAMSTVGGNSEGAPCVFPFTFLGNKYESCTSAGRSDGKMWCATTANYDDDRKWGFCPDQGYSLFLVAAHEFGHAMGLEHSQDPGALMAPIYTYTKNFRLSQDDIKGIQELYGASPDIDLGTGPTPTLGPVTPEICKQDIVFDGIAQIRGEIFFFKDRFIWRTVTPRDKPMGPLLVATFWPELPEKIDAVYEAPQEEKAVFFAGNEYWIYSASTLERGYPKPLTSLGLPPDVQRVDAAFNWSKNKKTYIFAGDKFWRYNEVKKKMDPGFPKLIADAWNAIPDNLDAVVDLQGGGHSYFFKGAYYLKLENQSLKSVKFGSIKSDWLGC

Look over these answered cases.
• COc1ccc2cc(C#Cc3ccc(-c4ccc(S(=O)(=O)N[C@H](Cc5ccccc5)C(=O)O)cc4)cc3)ccc2c1 [III-28] = > 5 µM
• O=C(Nc1ccc(-c2ccc(S(=O)(=O)N[C@H](Cc3ccccc3)C(=O)O)cc2)cc1)c1ccc2ccccc2c1 [VI-10] = > 10 µM

Lab note: next compound to report on.
Record for O=C(Nc1ccc(-c2ccc(S(=O)(=O)N[C@@H](Cc3ccccc3)C(=O)O)cc2)cc1)c1cc2ccccc2s1 [VI-48] under target or system MMP-2 (Homo sapiens, UniProt P08253): IC50 reported as > 10 µM

----------
Assay system MMP-9 (Homo sapiens); read-out recorded as pIC50.
pIC50: −log10 of the molar value.

Look over these answered cases.
- COc1ccc(C(=O)Nc2ccc(-c3ccc(S(=O)(=O)N[C@H](C)C(=O)O)cc3)cc2)cc1 [VI-15]: < 5.00
- COc1ccc2cc(C#Cc3ccc(-c4ccc(S(=O)(=O)N[C@@H](C)C(=O)O)cc4)cc3)ccc2c1 [III-18]: < 5.00

Lab note: next molecule to report on.
Record for O=C(Nc1ccc(-c2ccc(S(=O)(=O)N[C@H](Cc3ccccc3)C(=O)O)cc2)cc1)c1cc2ccccc2s1 [VI-47] under target or system MMP-9 (Homo sapiens): pIC50 reported as < 5.00
